Target Or System: benzodiazepine receptor
Assay Method Text: [3H]diazepam binding to benzodiazepine receptor (crude mitochondrial fraction of cerebral cortex)
Experimental Context: inhibition of ³H-diazepam (2 nM) binding by 50%, 4 °C, 20 minutes, Tris-HCl pH 7.4; read-out: IC₅₀
Assay Metric: IC50
Respond with the figure and its unit, in that order.

O=C(CC1c2ccccc2C(=O)N1c1ccc2ccc(Cl)nc2n1)N1CCC(O)CC1 (racemic) [Racemic compound of Example 3, reference compound] ... 2.14 nM

stdin: Provide IC50, system benzodiazepine receptor, entry O=C(CC1c2ccccc2C(=O)N1c1ccc2ccc(Cl)nc2n1)N1CCC2(CC1)OCCO2 (racemic) [Racemic compound of Example 1, reference compound]
stdout: 0.38 nM

stdin: GET IC50 | system: benzodiazepine receptor | item: "O=C(C[C@H]1c2ccccc2C(=O)N1c1ccc2ccc(Cl)nc2n1)N1CCC(O)CC1"
stdout: 0.92 nM

stdin: Report value: IC50, system: benzodiazepine receptor, compound: "O=C(C[C@H]1c2ccccc2C(=O)N1c1ccc2ccc(Cl)nc2n1)N1CCC2(CC1)OCCO2"
stdout: 0.32 nM
